# system_under_test: PI3Kα H1047R (T47D cells) (Homo sapiens, UniProt P42336, H1047R)
# Construct: endogenous in cells; host or cells: T47D cells
# Sequence (P42336 whole entry H1047R): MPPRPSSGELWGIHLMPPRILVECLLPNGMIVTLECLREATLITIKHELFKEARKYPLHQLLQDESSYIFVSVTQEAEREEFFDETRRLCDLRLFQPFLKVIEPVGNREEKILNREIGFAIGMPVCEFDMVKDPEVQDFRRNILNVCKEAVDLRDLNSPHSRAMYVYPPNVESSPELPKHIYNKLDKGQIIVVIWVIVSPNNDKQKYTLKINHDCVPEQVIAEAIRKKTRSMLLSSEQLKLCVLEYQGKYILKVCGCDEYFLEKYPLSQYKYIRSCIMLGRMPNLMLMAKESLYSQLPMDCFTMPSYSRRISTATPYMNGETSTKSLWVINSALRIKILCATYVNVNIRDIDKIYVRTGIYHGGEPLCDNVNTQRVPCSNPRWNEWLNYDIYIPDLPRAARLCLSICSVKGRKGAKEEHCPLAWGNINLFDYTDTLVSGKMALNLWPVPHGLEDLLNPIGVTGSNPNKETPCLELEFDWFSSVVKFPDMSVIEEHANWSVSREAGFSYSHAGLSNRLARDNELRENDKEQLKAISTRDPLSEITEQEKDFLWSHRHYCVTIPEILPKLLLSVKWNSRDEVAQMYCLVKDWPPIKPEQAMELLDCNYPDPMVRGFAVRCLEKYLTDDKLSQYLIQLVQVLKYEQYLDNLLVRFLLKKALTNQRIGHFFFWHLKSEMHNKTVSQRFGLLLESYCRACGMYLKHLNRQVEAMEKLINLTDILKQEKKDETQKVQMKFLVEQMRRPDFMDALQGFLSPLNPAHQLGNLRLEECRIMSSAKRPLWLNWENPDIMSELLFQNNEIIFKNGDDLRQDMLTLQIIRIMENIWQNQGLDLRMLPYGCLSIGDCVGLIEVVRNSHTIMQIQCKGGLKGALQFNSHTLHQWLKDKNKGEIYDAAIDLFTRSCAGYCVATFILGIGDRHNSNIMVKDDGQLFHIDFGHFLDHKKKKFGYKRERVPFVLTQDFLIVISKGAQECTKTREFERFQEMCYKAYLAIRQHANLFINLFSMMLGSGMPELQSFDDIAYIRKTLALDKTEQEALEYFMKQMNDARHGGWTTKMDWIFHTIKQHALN
# Sequence (P27986 whole entry partner): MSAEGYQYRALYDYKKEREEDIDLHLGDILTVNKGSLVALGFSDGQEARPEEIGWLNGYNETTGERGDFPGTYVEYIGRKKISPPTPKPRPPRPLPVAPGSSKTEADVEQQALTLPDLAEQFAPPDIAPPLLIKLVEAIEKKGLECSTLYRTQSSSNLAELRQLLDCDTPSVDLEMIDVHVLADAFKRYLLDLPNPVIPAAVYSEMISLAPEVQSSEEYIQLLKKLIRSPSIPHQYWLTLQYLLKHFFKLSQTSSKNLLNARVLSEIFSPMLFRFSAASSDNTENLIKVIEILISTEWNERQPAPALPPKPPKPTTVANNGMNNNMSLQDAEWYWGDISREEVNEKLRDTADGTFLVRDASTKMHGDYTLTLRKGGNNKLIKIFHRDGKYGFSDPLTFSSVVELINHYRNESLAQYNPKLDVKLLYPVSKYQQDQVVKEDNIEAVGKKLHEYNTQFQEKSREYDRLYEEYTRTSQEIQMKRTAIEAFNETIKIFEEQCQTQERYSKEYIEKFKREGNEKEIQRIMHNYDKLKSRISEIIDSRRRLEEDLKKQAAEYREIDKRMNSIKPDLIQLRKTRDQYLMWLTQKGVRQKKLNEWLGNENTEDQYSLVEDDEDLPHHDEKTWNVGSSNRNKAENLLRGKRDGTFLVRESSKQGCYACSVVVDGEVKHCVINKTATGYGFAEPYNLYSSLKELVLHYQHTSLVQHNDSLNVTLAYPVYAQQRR
# measurement_description: PI3Kα cellular assay: pAKT HTRF in T47D cells after EGF stimulation
# Type: cell-based
# condition_parameters: selectivity of T47D (H1047R) over SKBR3 (WT) pAKT IC50
measurement_label: T47D pAKT S473 HTRF IC50 (H1047R): T47D (H1047R) selectivity over SKBR3 (WT)

| compound | endpoint_value |
| --- | --- |
| Cc1cc([C@H](C)Nc2ccccc2C(=O)O)c2nc(-c3ccc4c(c3)c(C)cn4C)cc(=O)n2c1 | A (A denotes >20-fold) |
| Cc1cc(C(C)Nc2ccccc2C(=O)O)c2nc(-c3ccc4c(c3)c(C)nn4C)cc(=O)n2c1 (centres unmarked) [Compound 725] | A (A denotes >20-fold) |
| Cc1cc(C(C)Nc2ccccc2C(=O)O)c2nc(-c3ccc4c(c3)c(C3CC3)nn4C)cc(=O)n2c1 (centres unmarked) | A (A denotes >20-fold) |
| Cc1cc([C@H](C)Nc2ccccc2C(=O)O)c2nc(-c3c(C)ccc4[nH]ncc34)cc(=O)n2c1 | C (C denotes ≤5-fold) |
| Cc1cc([C@@H](C)Nc2ccccc2C(=O)O)c2nc(-c3ccc4c(c3)CC(F)(F)C4)c(C)c(=O)n2c1 | A (A denotes >20-fold) |
| Cc1cc([C@@H](C)Nc2ccccc2C(=O)O)c2nc(-c3ccc(Cl)cc3)c(C)c(=O)n2c1 (single isomer, unassigned) | A (A denotes >20-fold) |

Quick one: T47D pAKT S473 HTRF IC50 (H1047R): T47D (H1047R) selectivity over SKBR3 (WT) for `Cc1cc([C@H](C)Nc2ccccc2S(N)(=O)=O)c2nc(N3C[C@@H](C)O[C@@H](C)C3)cc(=O)n2c1` ?
C (C denotes ≤5-fold)

====

# system_under_test: PI3Kα H1047R (T47D cells) (Homo sapiens, UniProt P42336, H1047R)
# Construct: endogenous in cells; host or cells: T47D cells
# measurement_description: PI3Kα cellular assay: pAKT HTRF in T47D cells after EGF stimulation
# Type: cell-based
# condition_parameters: selectivity T47D (H1047R) over SKBR3 (WT), pAKT HTRF
measurement_label: T47D pAKT S473 HTRF IC50 (H1047R): T47D (H1047R) selectivity over SKBR3 (WT)

See these solved cases before continuing.
| molecule | endpoint_value |
| --- | --- |
| Cc1cc([C@@H](C)Nc2ccccc2S(N)(=O)=O)c2nc(C3CCN(CC(C)C)CC3)c(C)c(=O)n2c1 | C (C denotes ≤5-fold) |
| Cc1cc([C@H](C)Nc2ccccc2C)c2nc(N3CCOCC3)cc(=O)n2c1 | C (C denotes ≤5-fold) |
| Cc1cc(C(C)Nc2ccccc2C(=O)O)c2nc(N3CCN(C(C)(C)C(N)=O)CC3)cc(=O)n2c1 (stereo not shown) [Compound 581] | C (C denotes ≤5-fold) |
| Cc1cc([C@@H](C)Nc2ccccc2C(=O)O)c2nc(N3C[C@@H]4CC(F)(F)C[C@@H]4C3)cc(=O)n2c1 (single isomer, unassigned) | C (C denotes ≤5-fold) |
| Cc1cc([C@@H](C)Nc2ccccc2S(C)(=O)=O)c2nc(-c3ccc4c(C)cn(C)c4c3)c(C)c(=O)n2c1 | C (C denotes ≤5-fold) |
| Cc1cc([C@H](C)Nc2ccccc2C(=O)O)c2nc(-c3ccc4nc(NC(=O)C5CC5)nn4c3)cc(=O)n2c1 | C (C denotes ≤5-fold) |
| Cc1cc(C(C)Nc2c(F)cccc2C(=O)O)c2nc(N3CCOCC3)cc(=O)n2c1 (stereo not shown) | C (C denotes ≤5-fold) |
| Cc1cc([C@H](C)Nc2ccccc2CC(=O)O)c2nc(N3CCSCC3)cc(=O)n2c1 | C (C denotes ≤5-fold) |
| Cc1cc(C(C)Nc2ccccc2C(=O)O)c2nc(N3CCSCC3)cc(=O)n2c1 (stereo not shown) [Compound 140] | A (A denotes >20-fold) |
| CCc1cc(C(=O)NOC)ccc1-c1cc(=O)n2cc(C)cc([C@H](C)Nc3ccccc3C(=O)O)c2n1 | C (C denotes ≤5-fold) |

Quick one: T47D pAKT S473 HTRF IC50 (H1047R): T47D (H1047R) selectivity over SKBR3 (WT) for CCC(Nc1ccccc1C(=O)O)c1cc(C)cn2c(=O)cc(N3CCOCC3)nc12 (stereo not shown) ?
C (C denotes ≤5-fold)

Quick one: T47D pAKT S473 HTRF IC50 (H1047R): T47D (H1047R) selectivity over SKBR3 (WT) for `Cc1cc([C@@H](C)Nc2ccnnc2C(=O)O)c2nc(N3CCOCC3)cc(=O)n2c1` ?
C (C denotes ≤5-fold)

Quick one: T47D pAKT S473 HTRF IC50 (H1047R): T47D (H1047R) selectivity over SKBR3 (WT) for Cc1cc(C(C)Nc2ccccc2C(=O)O)c2nc(C#CC3CC3)c(C)c(=O)n2c1 (stereo not shown) ?
A (A denotes >20-fold)

Quick one: T47D pAKT S473 HTRF IC50 (H1047R): T47D (H1047R) selectivity over SKBR3 (WT) for `Cc1cc([C@H](C)Nc2ccccc2S(N)(=O)=O)c2nc([C@H]3CCCN(CC(F)F)C3)c(C)c(=O)n2c1` ?
A (A denotes >20-fold)

Quick one: T47D pAKT S473 HTRF IC50 (H1047R): T47D (H1047R) selectivity over SKBR3 (WT) for Cc1cc(C(C)Nc2ccccc2C(=O)O)c2nc(N3CCN(C(C)(C)C(N)=O)CC3)cc(=O)n2c1 (stereo not shown) [Compound 554] ?
C (C denotes ≤5-fold)

Quick one: T47D pAKT S473 HTRF IC50 (H1047R): T47D (H1047R) selectivity over SKBR3 (WT) for `Cc1cc([C@@H](C)N(C)c2ccccc2C(=O)O)c2nc(N3CCOCC3)cc(=O)n2c1` ?
C (C denotes ≤5-fold)

Quick one: T47D pAKT S473 HTRF IC50 (H1047R): T47D (H1047R) selectivity over SKBR3 (WT) for Cc1cc(C(C)Nc2ccccc2C(=O)O)c2nc(-c3cccc(F)c3)c(C3CC3)c(=O)n2c1 (stereo not shown) ?
A (A denotes >20-fold)
